test system: normal NK cells expanded with K562-aAPC; assay: drug sensitivity score (DSS) (DSS units); higher = more sensitive; extreme values may be limits of the assay; settings: 72 h; IL-2 2.5 ng/mL
measured property: drug sensitivity score
Answer with the value's number alone.

The cases that follow already have their drug sensitivity score on record.
COc1cc2nccc(Oc3ccc(NC(=O)NC4CC4)c(Cl)c3)c2cc1C(N)=O [Lenvatinib] (max concentration tested 2500 nM) | 1.26
CON(C)C(=O)N1N=C(c2cc(F)ccc2F)S[C@@]1(CCCN)c1ccccc1 [Filanesib] (max concentration tested 1000 nM) | 18.2
CC(=O)[C@]1(O)Cc2c(O)c3c(c(O)c2[C@@H](O[C@H]2C[C@H](N)[C@H](O)[C@H](C)O2)C1)C(=O)c1ccccc1C3=O [Idarubicin] (max concentration tested 1000 nM) | 24.8

Ask: Consider the compound Clc1ccccc1C(c1ccccc1)(c1ccccc1)n1cccn1 [TRAM-34] (max concentration tested 1000 nM) and give its measured drug sensitivity score.
Result: 0.49

Ask: Consider the compound Nc1cc(F)ccc1NC(=O)/C=C/c1cnn(C/C=C/c2ccccc2)c1 [RGFP966] (max concentration tested 10000 nM) and give its measured drug sensitivity score.
Result: 0

----------
tested on: normal primary NK cells, pool 1 (3 donors), resting (IL-2 0 ng/mL); assay: percent inhibition of viability; higher = more inhibition; conditions: 72 h; 1000 nM
measured property: percent inhibition of viability (%)
Your answer should be a plain number; it is taken to be in %.

The cases that follow already have their percent inhibition of viability on record.
COc1ccc(-c2cc3c(C)nc(N)nc3n([C@H]3CC[C@H](OCCO)CC3)c2=O)cn1 (max concentration tested 10000 nM) | 39
CNc1nc(-c2ccc3c(N)n[nH]c3c2)cc(N2C[C@@H](C(=O)NC3CCCCC3)CC[C@H]2C)n1 (max concentration tested 10000 nM) | 21.5
CC(C)C(=O)Nc1ccc([N+](=O)[O-])c(C(F)(F)F)c1 [Flutamide] (max concentration tested 10000 nM) | -12.5

Ask: Consider the compound Cc1ncc(-c2ccnc(Nc3ccc(S(C)(=O)=O)cc3)n2)n1C(C)C [AZD-5438] (max concentration tested 10000 nM) and give its measured percent inhibition of viability.
Result: -99.9

Ask: Consider the compound O=C(O)c1ccc2c(c1)nc(Nc1cccc(Cl)c1)c1ccncc12 [Silmitasertib] (max concentration tested 10000 nM) and give its measured percent inhibition of viability.
Result: -9.05

Ask: Consider the compound COc1cc(Nc2c(C#N)cnc3cc(OCCCN4CCN(C)CC4)c(OC)cc23)c(Cl)cc1Cl [Bosutinib] (max concentration tested 10000 nM) and give its measured percent inhibition of viability.
Result: 58.5

Ask: Consider the compound C[C@@H]1COC(Nc2ccc3ncnc(Nc4ccc(OCc5nccs5)c(Cl)c4)c3c2)=N1 [Varlitinib] (max concentration tested 10000 nM) and give its measured percent inhibition of viability.
Result: -23.5

----------
tested on: NK-YS (IL-2 2.5 ng/mL); assay: percent inhibition of viability; higher = more inhibition; settings: 72 h; 10000 nM
measured property: percent inhibition of viability (%)
Your answer should be a plain number; it is taken to be in %.

The cases that follow already have their percent inhibition of viability on record.
CC[C@@]1(O)C(=O)OCc2c1cc1n(c2=O)Cc2cc3c(CN(C)C)c(O)ccc3nc2-1 [Topotecan] (max concentration tested 10000 nM) | 104
CNc1nc(-c2ccc3c(N)n[nH]c3c2)cc(N2C[C@@H](C(=O)NC3CCCCC3)CC[C@H]2C)n1 (max concentration tested 10000 nM) | 12.3
CNC(=O)c1nn(C)c2c1C(C)(C)Cc1cnc(Nc3ccc(N4CCN(C)CC4)cc3)nc1-2 [Milciclib] (max concentration tested 10000 nM) | 103
CN(C)/N=N/c1[nH]cnc1C(N)=O [Dacarbazine] (max concentration tested 10000 nM) | 31.8

Ask: Consider the compound COc1ccc(-c2nc(N3CCOCC3)c3sc(CN(C)c4ncc(C(=O)NO)cn4)cc3n2)cn1 [CUDC-907] (max concentration tested 10000 nM) and give its measured percent inhibition of viability.
Result: 99

Ask: Consider the compound Cc1c(Cn2c(C)nc3c(C(=O)O)cc(N4CCOCC4)cc32)cccc1C(F)(F)F (max concentration tested 10000 nM) and give its measured percent inhibition of viability.
Result: 15.8

Ask: Consider the compound COc1ccc(-c2ccc3c(N4CCOC[C@@H]4C)nc(N4CCOC[C@@H]4C)nc3n2)cc1CO [AZD8055] (max concentration tested 10000 nM) and give its measured percent inhibition of viability.
Result: 78.2

Ask: Consider the compound CCc1c(C(=O)C(N)=O)c2c(OCC(=O)O)cccc2n1Cc1ccccc1 [Varespladib] (max concentration tested 10000 nM) and give its measured percent inhibition of viability.
Result: 12.8

----------
test system: normal primary NK cells, pool 3 (3 donors) (IL-2 2.5 ng/mL); test: percent inhibition of viability; higher = more inhibition; settings: 72 h; 1000 nM
measured property: percent inhibition of viability (%)
Your answer should be a plain number; it is taken to be in %.

Cc1nc(Nc2ncc(C(=O)Nc3c(C)cccc3Cl)s2)cc(N2CCN(CCO)CC2)n1 [Dasatinib] (max concentration tested 1000 nM) | -19.4
O[C@H]1CC[C@H](Nc2ncc3nc(Nc4c(F)cc(F)cc4F)n([C@H]4CCOC4)c3n2)CC1 [Tanzisertib] (max concentration tested 10000 nM) | -8.69
CC[C@H](CO)Nc1nc(NCc2ccccc2)c2ncn(C(C)C)c2n1 [Seliciclib] (max concentration tested 10000 nM) | -0.47

Ask: Consider the compound O=C1CCC(N2C(=O)c3ccccc3C2=O)C(=O)N1 (stereo unspecified) [Thalidomide] (max concentration tested 10000 nM) and give its measured percent inhibition of viability.
Result: 1.72

Ask: Consider the compound CCCCCOC(=O)Nc1nc(=O)n([C@@H]2O[C@H](C)[C@@H](O)[C@H]2O)cc1F [Capecitabine] (max concentration tested 10000 nM) and give its measured percent inhibition of viability.
Result: 7.05

Ask: Consider the compound CS(=O)(=O)c1ccc(C2=C(c3ccccc3)C(=O)OC2)cc1 [Rofecoxib] (max concentration tested 10000 nM) and give its measured percent inhibition of viability.
Result: -7.23

----------
test system: normal primary NK cells, pool 1 (3 donors) (IL-2 2.5 ng/mL); assay: percent inhibition of viability; higher = more inhibition; settings: 72 h; 0.1 nM
measured property: percent inhibition of viability (%)
Your answer should be a plain number; it is taken to be in %.

The cases that follow already have their percent inhibition of viability on record.
COc1cc2ncnc(Nc3ccc(F)c(Cl)c3)c2cc1NC(=O)/C=C/CN1CCCCC1 [Dacomitinib] (max concentration tested 1000 nM) | 2.94
CC(=O)[C@]1(O)Cc2c(O)c3c(c(O)c2[C@@H](O[C@H]2C[C@H](N)[C@H](O)[C@H](C)O2)C1)C(=O)c1ccccc1C3=O [Idarubicin] (max concentration tested 1000 nM) | -4.61
C/C(=C\c1csc(C)n1)[C@@H]1C[C@@H]2O[C@]2(C)CCC[C@H](C)[C@H](O)[C@@H](C)C(=O)C(C)(C)[C@@H](O)CC(=O)O1 [Patupilone] (max concentration tested 1000 nM) | -9.75
C[C@@H](Oc1ccc2[nH]nc(/C=C/c3cnn(CCO)c3)c2c1)c1c(Cl)cncc1Cl (max concentration tested 1000 nM) | -3.85

Ask: Consider the compound Cc1nc(Nc2ncc(C(=O)Nc3c(C)cccc3Cl)s2)cc(N2CCN(CCO)CC2)n1 [Dasatinib] (max concentration tested 1000 nM) and give its measured percent inhibition of viability.
Result: -0.11

----------
test system: KHYG-1 (IL-2 2.5 ng/mL); assay: relative IC50 (inflection point of fitted viability curve, relative to fitted max inhibition); higher = less sensitive; details: 72 h
measured property: relative IC50

C1=N/C2=N/c3ccc(OCCN4CCCC4)c(c3)COC/C=C/COCc3cccc(c3)C(=C1)N2 | 826 nM
NC(=O)Nc1sc(-c2ccc(F)cc2)cc1C(N)=O | 381 nM
C/C(=C\c1csc(C)n1)[C@@H]1C[C@@H]2O[C@]2(C)CCC[C@H](C)[C@H](O)[C@@H](C)C(=O)C(C)(C)[C@@H](O)CC(=O)O1 | 15.2 nM

Okay, next one:
Ask: Consider the compound Cn1cc(-c2ccc3nnc(Sc4ccc5ncccc5c4)n3n2)cn1 and give its measured relative IC50.
Result: > 5000 nM

----------
tested on: NK-92 (IL-2 2.5 ng/mL); assay: percent inhibition of viability; higher = more inhibition; conditions: 72 h; 100 nM
measured property: percent inhibition of viability (%)
Your answer should be a plain number; it is taken to be in %.

COc1ccc(-c2ccc3c(N4CCOC[C@@H]4C)nc(N4CCOC[C@@H]4C)nc3n2)cc1CO [AZD8055] (max concentration tested 10000 nM) | 48.4
Cc1cc(Nc2cc(N3CCN(C)CC3)nc(Sc3ccc(NC(=O)C4CC4)cc3)n2)n[nH]1 [Tozasertib] (max concentration tested 10000 nM) | 9.53
CC(=O)Nc1ccc(C(=O)Nc2ccccc2N)cc1 [Tacedinaline] (max concentration tested 1000 nM) | 1.73
CN[C@@H]1C[C@H]2O[C@@](C)([C@@H]1OC)n1c3ccccc3c3c4c(c5c6ccccc6n2c5c31)C(=O)N[C@H]4O [UCN-01] (max concentration tested 10000 nM) | 89.2
Cn1nnc2c(C(N)=O)ncn2c1=O [Temozolomide] (max concentration tested 100000 nM) | -7.33

Ask: Consider the compound Clc1ccccc1C(c1ccccc1)(c1ccccc1)n1cccn1 [TRAM-34] (max concentration tested 1000 nM) and give its measured percent inhibition of viability.
Result: -14.1

Reference source: the supplement of paper PMC5908809
